Test system: MS2 coat protein
ASSAY_REMARKS: apparent KD of MS2 coat protein; designed switch direction (-1 OFF switch, 1 ON switch): -1; higher = weaker reporter binding
ASSAY_CONDITIONS: Eterna round: R95; input ligand: microRNA oligo, concentration not stated
So I've got a bunch of sequences here, and I need their apparent KD of MS2 coat protein values.
Form entry: value (nM) — number only.

Please report apparent KD of MS2 coat protein for the following sequence: GAUAGGACGUGGUCAGGUAACAUGAGGAUCACCCAUGUAGGUCUAGGAACAAGCUUUUUGAAAGCUCGUCUUAUAAA [JR_SV3TOV1_Sub056] (puzzle: Sensor v3, turn-off variant 1) 18.9

Please report apparent KD of MS2 coat protein for the following sequence: AAAAGGUCAGGAUAUGCGAGCGGCAGGGAGGCAGGUCGGUGGCAGAAGGGACAUGAGGAUCACCCAUGUUAAAA [Excls4-II] (puzzle: Exclusion 4) 29.2

Please report apparent KD of MS2 coat protein for the following sequence: CGGCAACAUGUCAGGAUAUAUGUACCGCUGGGUGGAUAGAAGGGACAUGAGGAUCACCCAUGUCGUCCAGCCGG [Tisove] (puzzle: Brourd's mod of Exclusion 4) 12.6

Please report apparent KD of MS2 coat protein for the following sequence: GUAGAGUAAGGAUAUAGUGAAUAGGAUAGAAUGGUUAGAAACUAGAAGGUACAUGAGGAUCACCCAUGUAAUGU [Excluse me!!!! 21 - Jieux - Exclusion 4] (puzzle: Exclusion 4) 20.4

Please report apparent KD of MS2 coat protein for the following sequence: GGUUGGCGAGGAUAUACAUGAGGAUCACCCAUGUGAGAAAAUAGUGAGGAAAAGAAAAGUAGAAGGCGCUGACG [Mat - Exclusion 3 - Mod of Salish D54] (puzzle: Exclusion 3) 38.8

Please report apparent KD of MS2 coat protein for the following sequence: CCCUCACAUGAGGAUCACCCAUGUCAGGAUAUUCGAGGCGCAAAUGCGCCAAAUGCAGGAAGAAGGGACGUGCC [Isqubemaor] (puzzle: Exclusion 1) 14

Please report apparent KD of MS2 coat protein for the following sequence: AAGAAGCAAGGAUAUACAACGGGCCACAGAGCCGAAGGGCAACAUGAGGAUCACCCAUGUAGAAGGUGCGUAAC [Lecebeqube] (puzzle: Exclusion 2) 30.3

Please report apparent KD of MS2 coat protein for the following sequence: UUAUAUAGUGUGAGGAUAUGCUGGUCCUUGGAUCAGCAGAAGGCACAUGAGGAUCACCCAUGUAGUUAAAUAUA [Mat - Exclusion 4 - JL Mod - D18] (puzzle: Brourd's mod of Exclusion 4) 31.1

Please report apparent KD of MS2 coat protein for the following sequence: GAAAAGGUAGGAUAUACGAAAUAAAAGGGUAGAAAAAAAACACAUGAGGAUCACCCAUGUAGAAGGACCAAAAG [salish99_ex2_r3_084] (puzzle: Exclusion 2) 15.5

* * *

Tested on: MS2 coat protein
ASSAY_REMARKS: apparent KD of MS2 coat protein; designed switch direction (-1 OFF switch, 1 ON switch): -1; higher = weaker reporter binding
ASSAY_CONDITIONS: input ligand: none
Please enter y where apparent KD of MS2 coat protein is greater than or equal to 0.03 µM, and n where it is lower.

Textbook exercise: given the entry UUUUAACAAGCGAGGUCCCACAUGAGGAUCACCCAUGUAGGUCAUGGAUUCCAUGGUCUUUUUGCUCGUCUUGUGUG [jl TITIN mod 9] (Eterna round: R97, puzzle: Sensor, turn-off variant 1) , state whether its apparent KD of MS2 coat protein is greater than or equal to 0.03 µM. y

Textbook exercise: given the entry UUUAUGCUAGGAUAUGCACCCUCGAACAUGAGGAUCACCCAUGUACAAUAAAAGCAUGGAGCAGAAGGAGCUCCCA [EX5 A.24] (Eterna round: R97, puzzle: Exclusion 5) , state whether its apparent KD of MS2 coat protein is greater than or equal to 0.03 µM. y

Textbook exercise: given the entry GCAGCAACUCUAAUCAAUCAAACAUGAGGAUCACCCAUGUCUCAGGAUAUGGUCUGGAUUACAGGCCAGAAGGGAGAAAGCUGC [Eli exng3 - 045] (Eterna round: R96, puzzle: Exclusion NG 3) , state whether its apparent KD of MS2 coat protein is greater than or equal to 0.03 µM. n

Textbook exercise: given the entry UCUUCACAUGAGGAUCACCCAUGUGAGGAUAUGGUUUCGCUGGCCGUAGCCAGUGGAACCAGAAGGCGCGUGAU [Mat - Exclusion 1 - JL Mod - D23] (Eterna round: R97, puzzle: Exclusion 1) , state whether its apparent KD of MS2 coat protein is greater than or equal to 0.03 µM. y

Textbook exercise: given the entry AAUAACAAGCUGAUCCUUCACAUGAGGAUCACCCAUGUGCUCGUCUUGUAAAGUACUAUCACGAAAGUGAUAGUACA (Eterna round: R97, puzzle: Sensor, turn-off variant 1) , state whether its apparent KD of MS2 coat protein is greater than or equal to 0.03 µM. y

Textbook exercise: given the entry UUUAGUUGGUAAGGAUAUCCUACAUUGUUCUGGCCCGGGCAUGCUACAUGAGGAUCACCCAUGUGGGAGAAGGUGCGUCAUUGC [Design 20] (Eterna round: R96, puzzle: Exclusion NG 2) , state whether its apparent KD of MS2 coat protein is greater than or equal to 0.03 µM. y

Textbook exercise: given the entry GAGUUAACAUGAGGAAUAUACAUGAGGAUCACCCAUGUUAACAAAACUUUUGCUCGUCUUAUAACAACAAUUAACUC [Alarm 2 - Jieux - Sensor, turn-off variant 1] (Eterna round: R97, puzzle: Sensor, turn-off variant 1) , state whether its apparent KD of MS2 coat protein is greater than or equal to 0.03 µM. y

Textbook exercise: given the entry GCAUGUUGGUAGGAUAUGCAGCGGAAACCGCUAGUAGAAGGAUUGACAUGAGGAUCACCCAUGUGAACCGAAGG [Arcelace] (Eterna round: R97, puzzle: Exclusion 6) , state whether its apparent KD of MS2 coat protein is greater than or equal to 0.03 µM. y

Textbook exercise: given the entry UGAUCAGACCGAGGAUAUAUAUGUAGGACGCACGUGAGUGCGUCCAGUACAUGAGGAUCACCCAUGUAGAAGGCGGUCUGAUCU [JL ENG2 1.96] (Eterna round: R96, puzzle: Exclusion NG 2) , state whether its apparent KD of MS2 coat protein is greater than or equal to 0.03 µM. n

Textbook exercise: given the entry UGAGUGCUGCGAGGAUAUACAUGAGGAUCACCCAUGUGGAUCUGUGAGGCUUUGCCUCACAGGAUGUAGAAGGCGCAGUACUCU [JL ENG2 1.19] (Eterna round: R96, puzzle: Exclusion NG 2) , state whether its apparent KD of MS2 coat protein is greater than or equal to 0.03 µM. n

Textbook exercise: given the entry GGCCUUCCGCAAGCUUUUUACAUGAGGAUCACCCAUGUGAUUUUUAGUCUUAUGCCCGGGCCCGUGUGGGCCCGGGC [-34.8, -55.6, A 14%] (Eterna round: R97, puzzle: Sensor, turn-off variant 1) , state whether its apparent KD of MS2 coat protein is greater than or equal to 0.03 µM. n

* * *

System: MS2 coat protein
ASSAY_REMARKS: apparent KD of MS2 coat protein, switch ON state; designed switch direction (-1 OFF switch, 1 ON switch): -1; higher = weaker reporter binding
ASSAY_CONDITIONS: FMN input: 0 or 200 uM; Eterna round: R93 (includes R88 designs)
Please enter true (1) where apparent KD of MS2 coat protein is greater than or equal to 50 nM, and false (0) where it is lower.

Textbook exercise: given the entry AAAAAUGGAGGAUAUACAUGAGGAUCACCCAUGUGUAACUAUACUAAGCACUCCUCACGUAGAAGGCCAAAAAA [Gilly Gone Silly 13 - Jieux - Exclusion 3] , state whether its apparent KD of MS2 coat protein is greater than or equal to 50 nM. true (1)

Textbook exercise: given the entry AGGAAGUGAGGAUAUGCUGCUCGUCACUUGCGUGAUGAGUAGCAGAAGGCACAUGAGGAUCACCCAUGUAAAAA [Mat - Exaclusion 4 - Eli mod - D21] , state whether its apparent KD of MS2 coat protein is greater than or equal to 50 nM. false (0)

Textbook exercise: given the entry AACUGACAUGAGGAUCACCCAUGUCAGGAUAUGAUAUGUAAAAAAUAAAAAAUACUUAUCAGAAGGGACAUGAA [Design 43: Sub-opt C] , state whether its apparent KD of MS2 coat protein is greater than or equal to 50 nM. false (0)

Textbook exercise: given the entry AAUAUGGGAGGAUAUGCAUAGAUAAAGAAACAUGUUAAAACACAUGAGGAUCACCCAUGUAGAAGGCCCAUAUA [AJ 10] , state whether its apparent KD of MS2 coat protein is greater than or equal to 50 nM. true (1)

Textbook exercise: given the entry AAAAAACAUGAGGAUCACCCAUGUGAGGAUAUGCAAAAAUAAAAUAAAAUAAUAAAAAGCAGAAGGCACAAAAA [Amethyst 76] , state whether its apparent KD of MS2 coat protein is greater than or equal to 50 nM. false (0)

Textbook exercise: given the entry `AAACGUUGAGGAUAUACGAAAAAGGGUAGGUCAAAUAAAACACAUGAGGAUCACCCAUGUAGAAGGCAACGAAA` , state whether its apparent KD of MS2 coat protein is greater than or equal to 50 nM. true (1)
